# test-protocol: Solubility of the racemate in the chromatography eluent
# Format: physicochemical
# test-context: organic solvent or mixture; in pure acetonitrile
# Description: The selectivity obtained has a strong influence on process productivity. As illustrated in Example 3 below the addition of isopropanol to the acetonitrile mobile phase increased the selectivity over two-fold. The process productivity is almost proportional to [formula] but other parameters also have to be considered to select the best chromatographic conditions. The process is also influenced by the retention of the compounds, with tests showing the retention to be maximal at 2-3% isopropanol. […]
quantity-measured: solubility (mg/mL)
API: value field is a number in mg/mL; no unit string.

Lab note: C[C@H]1NC(C)(C)CO[C@]1(O)c1cccc(Cl)c1 (racemic) [racemate] gave solubility of 22.5

---

# test-protocol: Solubility of the racemate in the chromatography eluent
# Type: physicochemical
# test-context: organic solvent or mixture; in acetonitrile/isopropanol 95/5 mixture
quantity-measured: solubility (mg/mL)
Could you give me the number in mg/mL? Just the number is fine.

Quick note, solubility for C[C@H]1NC(C)(C)CO[C@]1(O)c1cccc(Cl)c1 (racemic) [racemate] landed at 30
